Origin of values: patent US20220323406A1

// reported Dose.FC.LYZ.S per item
Tested on: ENR+CD organoids (ISC to Paneth cell differentiation)
Assay: Primary screen: CCh-stimulated lysozyme secretion LYZ.S, 2.5-D 384-well ENR+CD organoid differentiation
Format: cell-based, mouse
Conditions: primary screen, dose 2.00 uM
Express your answer in log2 fold change, writing the number without its unit.

>>> reported_value("C=C[C@@]1(C)CC(=O)[C@]2(O)[C@@]3(C)[C@@H](O)CCC(C)(C)[C@@H]3[C@H](O)[C@H](OC(C)=O)[C@@]2(C)O1")
0.102
>>> reported_value("CCCSc1nc(N[C@@H]2C[C@H]2c2ccc(F)c(F)c2)c2nnn([C@@H]3C[C@H](OCCO)[C@@H](O)[C@H]3O)c2n1")
0.018
>>> reported_value("C[C@]1(c2nc3c(C(N)=O)cccc3[nH]2)CCCN1")
"−0.016"

Which Dose.FC.LYZ.S value belongs to CN(C)C(=O)c1ccc(S(=O)(=O)c2ccc(NC(=O)[C@@](C)(O)C(F)(F)F)c(Cl)c2)cc1 ?
−0.148
